Source: PubChem BioAssay (NCI)

# TGI listing for each entry below
test system: HL-60(TB) leukemia; assay: NCI tumour cell line growth inhibition, 48 h

{"columns": ["molecule", "tested-system", "TGI"],
 "data": [
  ["CC(=O)c1c2n(n(-c3ccccc3)c1=O)C(=O)c1nccnc1-2", "HL-60(TB) leukemia", "> 100 µM"],
  ["CC(=O)OC1COC(Nc2nc(N)n(C)c(=O)c2N=O)C(OC(C)=O)C1OC(C)=O (configuration not stated)", "HL-60(TB) leukemia", "> 10 µM"],
  ["O=c1ccc2nc(-c3ccccn3)nn(-c3ccccc3)c-2c1", "HL-60(TB) leukemia", "3.11 µM"],
  ["CC(C)(C)OC(=O)NCC(=O)N1CCN(C(=O)CNC(=O)OC(C)(C)C)CC1", "HL-60(TB) leukemia", "> 100 µM"],
  ["O=C(NC(=S)Nc1cc(Cl)ccc1O)c1cccc(Br)c1", "HL-60(TB) leukemia", "> 100 µM"],
  ["CCN(CC)c1ccc(/C=C/C=C2\\NC(=O)NC2=O)cc1", "HL-60(TB) leukemia", "> 100 µM"],
  ["CCC[C@@H]1C(=O)N=C(N)N1C(=O)OCc1ccccc1", "HL-60(TB) leukemia", "> 100 µM"]
]}
